protocol-notes: Cell viability by the Alamar Blue assay (cytotoxicity)
Type: cell-based
conditions: mouse, RAW 264.7 macrophages activated with LPS and IFN-γ, RAW 264.7, 24 h, mean ± SD, read-out: Cytotoxicity (LC50 in μM) (n = 8)
CC50 at 24 h listing for selected compounds.

compound	CC50 at 24 h
C=C(C)[C@@H]1CC[C@]2(C(=O)O)CC[C@]3(C)[C@H](CC[C@@H]4[C@@]5(C)CC[C@H](O)C(C)(C)[C@@H]5CC[C@]43C)[C@@H]12 [Compound 5, betulinic acid]	29.1 µM
CC(C)Cc1ccc(C(C)C(=O)O)cc1 (stereo not drawn) [Ibuprofen, ibuprofen, reference compound]	> 1500 µM
O=C(O)Cc1ccccc1Nc1c(Cl)cccc1Cl [Diclofenac, diclofenac sodium, reference compound]	> 333 µM

----------
protocol-notes: Cell viability by the Alamar Blue assay (cytotoxicity)
Assay type: cell-based
conditions: mouse, RAW 264.7, 24 h, mean ± SD, read-out: Cytotoxicity (LC50 in μM) (n = 8)
Listing: CC50 at 24 h of selected compounds

compound	value-modifier	CC50 at 24 h (µM)
C=C(C)[C@@H]1CC[C@]2(C(=O)O)CC[C@]3(C)[C@H](CC[C@@H]4[C@@]5(C)C[C@@H](O)[C@H](O)C(C)(C)[C@@H]5CC[C@]43C)[C@@H]12	=	18.6
C=C(C)[C@@H]1CC[C@]2(C(=O)O)CC[C@]3(C)[C@H](CC[C@@H]4[C@@]5(C)[C@@H](C(=O)O)[C@H](O)C(C)(C)[C@@H]5CC[C@]43C)C12 (stereo partly drawn)	>	36
C=C(C)[C@@H]1CC[C@]2(C(=O)O)CC[C@]3(C)[C@H](CC[C@@H]4[C@@]5(C)C[C@@H](OC(=O)/C=C/c6ccc(O)cc6)[C@H](O)C(C)(C)[C@@H]5CC[C@]43C)[C@@H]12 [Compound 3, trans-coumaroyl alphitolic acid]	=	4.8

Measured values drawn from paper PMC6273140 for this set.
